Target: T1, interleukin-2 alpha receptor (SYMANSIS, #4102H) to which a human immunoglobulin Fc region was linked (UniProt P01589 22-213, limits assumed)
T1 construct: Bought receptor-Fc, captured on anti-human immunoglobulin antibody; also called IL-2Rα; CD25; not shown: human immunoglobulin Fc region
T1 sequence (looked up): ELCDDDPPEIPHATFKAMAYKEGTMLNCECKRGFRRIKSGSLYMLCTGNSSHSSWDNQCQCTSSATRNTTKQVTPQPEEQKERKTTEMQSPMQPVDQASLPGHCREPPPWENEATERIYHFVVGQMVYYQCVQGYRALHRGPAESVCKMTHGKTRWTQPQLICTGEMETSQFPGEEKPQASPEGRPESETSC
Experiment: SPR (Biacore T200); receptor-Fc captured on anti-human Ig CM5 chip, analog flowed; relative to analog 1 = 100%
Response field label: string, one of condition met (Relative binding affinity (%) strictly below 10%) or condition not met.

Some solved cases for reference:
interleukin-2 analog 105 (ligand) PTSSSTKKTQLQLEHLRLDLEMILNGINNYKNPKLTRMLTFKFYMPKKATELKHLQCLEEELKPLEDVLNLAQSKNFHFEPRDVVSNINVFVLELKGSETTFMCEYADETATIVEFLNRWITFSQSIISTLT	condition not met
interleukin-2 analog 31 (ligand) PTSSSTKKTQLQLEHLLLDLQMILNGINNYKNPKLTAMLTFKFYMPKKATELKHLQCLEEELKPLEEVLNLAQSKNFHLRPRELISNINVIVLELKGSETTFMCEYADETATIVEFLNRWITFSQSIISTLT	condition met
interleukin-2 analog 101 (ligand) PTSSSTKKTQLQLEHLLLDLQMILNGINNYKNPKLTRMLTFKFYMPKKATELKHLQCLEEELKPLEEVLNLAQSKNFHFEPRDLASNINVFVLELKGSETTFMCEYADETATIVEFLNRWITFSQSIISTLT	condition not met
interleukin-2 analog 16 (ligand) PTSSSTKKTQLQLEHLLLDLQMILNGINNYKNPKLTAMLTKKFYMPKKATELKHLQCLEEELKPLEEVLNLAQSKNFHLRPRDLISQINVIVLELKGSETTFMCEYADETATIVEFLNRWITFSQSIISTLT	condition met

Could you now look at the following binder, please?
Query: API: query returns whether the binder falls strictly under 10% in Relative binding affinity (%). Query: interleukin-2 analog 95 (ligand) PTSSSTKKTQLQLEHLLLDLQMILNGINNYKNPKLTRMLTFKFYMPKKATELKHLQCLEEELKPLEEGLNLAQSKNFHFEPRDVVSNINVFVLELKGSETTFMCEYADETATIVEFLNRWITFSQSIISTLT
Result: condition not met
